# Tested on: PIK3C2G
# reported_conditions: concentration: 1 μM, replicates: in singlicate; n = 1;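 further: KINOMEscan kinase panel screen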
Give %Inh for every item shown.
Answer format reminder: number followed by unit.

Example entries and their recorded answers appear below.
# line_notation, %Inh
rows = [
    ("Cn1ccc2ncnc(Oc3cccc(C(=O)Nc4ccccc4)c3)c21", "0%"),
    ("Cc1ccc(NC(=O)Nc2cc(C(C)(C)C)nn2-c2ccccc2)cc1", "0%"),
    ("COc1cc2ncnc(Nc3ccc4nc(-c5ccccc5)[nH]c4c3)c2cc1OC.Cl", "0%"),
    ("COc1ccccc1-c1ccc2c(NC(=O)C3CC3)n[nH]c2n1", "45%"),
]

Record summary for CCn1c(-c2cccnc2O)nc2cnccc21 : reported %Inh = 0%

----------
# System: RSK1(Kin.Dom.1-N-terminal)
# Construct: gene RPS6KA1
# reported_conditions: concentration: 1 μM, replicates: in singlicate; n = 1
Could you please report measured %Inh for the items listed next?
Give bare numbers, in %.

# compound, assay_system, measurement
rows = [
    ("Fc1cccc(COc2nnc(-c3ccc4c(c3)CCO4)o2)c1", "RSK1(Kin.Dom.1-N-terminal)", 0),
    ("Cc1cccc(-c2nc(Nc3ccc4[nH]ncc4c3)c3ccccc3n2)n1", "RSK1(Kin.Dom.1-N-terminal)", 15),
]

Please state %Inh for every compound in the list that follows.
1. CN(C)CCN(C)C(=O)c1cc(-c2ccncc2)c(-c2ccc(Cl)c(O)c2)o1.Cl.Cl
2. COc1ccc(Nc2nccc(-c3cccc(NC(=O)c4cc5cc(F)ccc5[nH]4)c3)n2)cc1
3. COc1cc2ncnc(Nc3ccc4nc(-c5ccccc5)[nH]c4c3)c2cc1OC.Cl
4. CC1=C(C(=O)Nc2cc3cn[nH]c3cc2F)C(c2ccc(C(F)(F)F)cc2)CC(=O)N1 (stereo not drawn)

1. 25
2. 13
3. 0
4. 5

Please go through the list and note %Inh for each compound.
1. COc1ccccc1-c1ccc2c(NC(=O)C3CC3)n[nH]c2n1
2. CCn1c(-c2cccnc2O)nc2cnccc21
3. O=C(Nc1ccccc1)Nc1cccc(Oc2ccc3nccn3n2)c1

1: 11; 2: 0; 3: 0

----------
Could you please report measured %Inh for the items listed next?
# System: ROCK1
# reported_conditions: concentration: 1 μM, replicates: in singlicate; n = 1
One number for each entry, in %.

# compound, units_symbol, %Inh
data = [
    ("NC(=O)c1nnc2ccccc2c1N", "%", 0),
    ("Cc1cccc(-c2nc(Nc3ccc4[nH]ncc4c3)c3ccccc3n2)n1", "%", 29),
    ("COc1ccc(C2=C(Nc3cccc(C(=O)O)c3)C(=O)NC2=O)cc1", "%", 20),
    ("Cc1cccc(-c2nc(C)cc(Nc3ccncc3)n2)n1", "%", 25),
]

Dear colleague, could you please provide %Inh for the compounds listed below?
1. COC(=O)c1c(-c2ccccc2)c2cc(OC)ccc2c(=O)n1Cc1ccccc1
2. CN(C)CCN(C)C(=O)c1cc(-c2ccncc2)c(-c2ccc(Cl)c(O)c2)o1.Cl.Cl
3. Cc1ccc(NC(=O)Nc2cccc(Cl)c2)cc1-c1ccc(C(=O)Nc2ccncc2)cc1
4. Cc1c(Cn2ccn3c(=O)cc(N4CCOCC4)nc23)cccc1C(F)(F)F

1. 0
2. 26
3. 0
4. 0

----------
I'd appreciate it if you could supply %Inh values for the items below.
# Tested on: TXK
# reported_conditions: concentration: 1 μM, replicates: in singlicate; n = 1
Give bare numbers, in %.

# compound, %Inh (%)
data = [
    ("COc1ccccc1-c1ccc2c(NC(=O)C3CC3)n[nH]c2n1", 0),
    ("Cc1cccc(-c2cc(Nc3ccncc3)c3ccccc3n2)n1", 87),
    ("Cc1cccc(-c2nc(C)cc(Nc3ccncc3)n2)n1", 0),
]

The following compounds each have a reported value; give each one's %Inh.
1. O=C1NC(=O)C(N2CCc3ccccc32)=C1c1ccccc1Cl
2. Cc1csc(-c2nc(Nc3ccncc3)c3ccccc3n2)n1
3. Cl.O=C(Nc1cccc(-c2nn3ncccc3c2-c2ccnc(Nc3cccnc3)n2)c1)c1c(F)cccc1F
4. Cc1cc(NCC(c2ccccc2)c2ccccc2)nc(NCc2ccc(C(F)(F)F)cc2)n1
5. O=c1cc(N2CCOCC2)nc2n(Cc3cccc(Cl)c3Cl)ccn12
6. CCCc1ccc(S(=O)(=O)NC2CCN(c3ccnc(Nc4ccc(F)cc4)n3)C2)cc1 (stereo not drawn)
7. CC1=C(C(=O)Nc2cc3cn[nH]c3cc2F)C(c2ccc(C(F)(F)F)cc2)CC(=O)N1 (stereo not drawn)
8. CC(=O)Nc1nc2cnc(Nc3cc(NC(=O)c4cccc(CCC#N)c4)ccc3C)nc2s1

1. 28
2. 0
3. 1
4. 0
5. 19
6. 73
7. 21
8. 0

# return %Inh for each item in the list
1. CCn1c(-c2cccnc2O)nc2cnccc21
2. Cc1cc(-c2ccc3c(c2)CC[C@@H](N[C@@H](C)c2ccccc2)C3)cnc1N.Cl
3. COc1cc2nccc(Nc3ccc(NC(=O)c4ccc(C)cc4)c(O)c3)c2cc1OC.Cl
4. O=C(Nc1n[nH]c2nc(-c3nccs3)c(Br)cc12)C1CC1
5. O=C(Nc1ccc2c(c1)OCO2)NC1CCN(c2ccnc(Nc3ccc(F)cc3)n2)C1 (stereo not drawn)

0
16
10
0
43

I need %Inh for every entry listed below, if you could help.
1. Cc1ccc(-c2cc(-c3c[nH]nc3-c3ccccn3)ccn2)cc1
2. Cl.c1ccc(-c2n[nH]cc2-c2ccnc(-c3ccc(CN4CCOCC4)cc3)c2)nc1

1. 0
2. 7

----------
# Test system: HPK1
# reported_conditions: concentration: 1 μM, replicates: in singlicate; n = 1
For each record, check the reported %Inh: if it is below 20% write label 1, else write label 0.

# compound, assigned_label
records = [
    ("Cc1cc(NCC(c2ccccc2)c2ccccc2)nc(NCc2ccc(C(F)(F)F)cc2)n1", "label 0"),
    ("CC(C)(C)c1ccc(C(=O)Nc2cn3cc(-c4cccnc4)ccc3n2)cc1", "label 1"),
    ("COc1ccccc1CNC(=O)c1cc(C(=O)c2ccccc2C)c[nH]1", "label 0"),
    ("CCCc1ccc(S(=O)(=O)NC2CCN(c3ccnc(Nc4ccc(F)cc4)n3)C2)cc1 (stereo not drawn)", "label 0"),
    ("NC(=O)c1nnc2ccccc2c1N", "label 1"),
]

Determine if Nc1ncnc2[nH]c(-c3ccccc3)nc12 shows %Inh strictly lower than 20%.
label 0

Please check: %Inh for Cc1ccc(C(=O)Nc2ccc(Nc3ccnc4cc(-c5ccccn5)ccc34)cc2O)cc1.Cl , strictly under 20% or not?
label 0

Dear colleague, could you confirm whether %Inh of COC(=O)c1c(-c2ccccc2)c2cc(C(=O)O)ccc2c(=O)n1Cc1ccccc1 falls below 20%? Thanks.
label 1

Strictly below 20%: is that where %Inh of O=C(Nc1n[nH]c2cc(-c3cccc(F)c3F)ccc12)C1CC1 sits?
label 1

----------
# Test system: MST4
# reported_conditions: concentration: 1 μM, replicates: in singlicate; n = 1
For each record, write down the corresponding %Inh.
Give bare numbers, in %.

# count of solved cases: 10
# compound, %Inh, %
records = [
    ("Cc1c(Cn2ccn3c(=O)cc(N4CCOCC4)nc23)cccc1C(F)(F)F", 0),
    ("CCCc1ccc(S(=O)(=O)NC2CCN(c3ccnc(Nc4ccc(F)cc4)n3)C2)cc1 (centres unmarked)", 0),
    ("COc1cccc(-c2cc(-c3c[nH]nc3-c3ccccn3)ccn2)c1", 30),
    ("COc1ccc2nc(-c3cccc(C)n3)nc(Nc3ccncc3)c2c1", 0),
    ("CCn1c(-c2ccccn2)nc2cnccc21", 0),
    ("COc1cc2ncn(-c3cc(OCC4CCCO4)c(C(N)=O)s3)c2cc1OC (centres unmarked)", 0),
    ("Cc1cc(-c2ccc3c(c2)CC[C@@H](N[C@@H](C)c2ccccc2)C3)cnc1N.Cl", 0),
    ("Cn1ccc2ncnc(Oc3ccc(Nc4nc5ccccc5[nH]4)cc3)c21", 0),
    ("COC(=O)c1c(-c2ccccc2)c2cc(C(=O)O)ccc2c(=O)n1Cc1ccccc1", 9),
    ("Cc1ccccc1-n1cnc2c(N)ncnc21", 0),
]

Could I get %Inh for every one of these entries?
1. CCn1c(-c2cccnc2O)nc2cnccc21
2. COc1ccc(CNC(=O)NC2CCN(c3ccnc(Nc4cc(OC)c(OC)c(OC)c4)n3)C2)cc1 (centres unmarked)
3. Fc1cc(Cl)ccc1Nc1ccnc2cc(-c3ccc(CN4CCCCC4)o3)ccc12
4. COC(=O)c1c(-c2ccccc2)c2cc(OC)ccc2c(=O)n1Cc1ccccc1
5. Cl.Oc1ccc(-c2nc(-c3ccccc3)[nH]c2-c2ccncc2)cc1
6. CS(=O)(=O)c1ccc(-c2c(-c3ncn[nH]3)sc(N3CCOCC3)c2C#N)cc1

[0, 0, 0, 0, 0, 0]

Provide %Inh values for the following items, in order.
1. Cc1cccc(-c2nc(C)cc(Nc3ccncc3)n2)n1
2. O=S(=O)(c1ccc(-c2ccnc3[nH]ccc23)cc1)N1CCCC1

1: 0; 2: 0

Fill in %Inh for each of the 5 compounds listed.
1. O=C(Nc1ccc2c(c1)OCO2)NC1CCN(c2ccnc(Nc3ccc(F)cc3)n2)C1 (centres unmarked)
2. O=c1cc(N2CCOCC2)nc2n(Cc3cccc(Cl)c3Cl)ccn12
3. COc1cc2nccc(Nc3ccc(NC(=O)c4ccc(C)cc4)c(O)c3)c2cc1OC.Cl
4. Cn1ccc2ncnc(Oc3ccc(NC(=O)Nc4ccccc4)cc3)c21
5. Nc1ncnc2[nH]c(-c3ccccc3)nc12

0
0
0
0
1
